MEASURED_ON: IMP-1 (Serratia marcescens, UniProt P52699)
Sequence (P52699 19-246 limits assumed): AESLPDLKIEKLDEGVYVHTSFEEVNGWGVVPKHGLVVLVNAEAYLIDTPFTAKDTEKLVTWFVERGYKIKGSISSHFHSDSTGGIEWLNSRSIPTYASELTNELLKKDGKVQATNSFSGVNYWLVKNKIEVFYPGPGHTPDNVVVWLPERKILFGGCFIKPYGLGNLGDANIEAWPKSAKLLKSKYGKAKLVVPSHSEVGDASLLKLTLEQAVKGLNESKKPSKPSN
TEST_NAME: β-lactamase inhibition assay, nitrocefin substrate
Type: biochemical
pIC50: −log10 of the molar value.
Reported pIC50 values for the following compounds.

Solved cases (3 shown):
{"COMPOUND": "NC(=O)[C@@H]1CC[C@@H]2CN1C(=O)N2OS(=O)(=O)O [avibactam]", "MEASURED_ON": "IMP-1 (Serratia marcescens, UniProt P52699)", "pIC50": "< 4.00"}
{"COMPOUND": "O=C(O)C[C@@H]1CC[C@H](NC(=O)Cc2cccs2)B(O)O1 [vaborbactam]", "MEASURED_ON": "IMP-1 (Serratia marcescens, UniProt P52699)", "pIC50": "< 4.00"}
{"COMPOUND": "C[C@]1(Cn2ccnn2)[C@H](C(=O)O)N2C(=O)C[C@H]2S1(=O)=O [tazobactam]", "MEASURED_ON": "IMP-1 (Serratia marcescens, UniProt P52699)", "pIC50": "< 4.00"}

Task: For the compound O=C(O)[C@H]1/C(=C/CO)O[C@@H]2CC(=O)N21 [clavulanic acid] , give its measured pIC50 value.
Result: < 4.00
